tested on: Toxoplasma gondii tachyzoites of the RH strain; test: microbe, parasite or virus in culture; assay type: cell-based; conditions: Toxoplasma gondii; 250 nM, 24 h of treatment; read-out: Proliferation index (%)
ASSAY ENDPOINT: activity at […]
Enter the number, and then the unit.

CHEMICAL STRING	activity at […]
CCc1nc(N)nc(N)c1-c1ccc(Cl)cc1	56.6%
CO[C@@H]1[C@H](N(C)C(=O)c2ccccc2)C[C@H]2O[C@]1(C)n1c3ccccc3c3c4c(c5c6ccccc6n2c5c31)C(=O)NC4	23.1%
COc1c(C)c2c(c(O)c1C/C=C(\C)CCC(=O)O)C(=O)OC2	42%

Pending molecule:
Data point: `CC[C@@H](C(=O)[C@@H](C)[C@@H](O)[C@H](C)[C@@H]1O[C@@H]([C@@H](CC)C(=O)O)CC[C@@H]1C)[C@H]1O[C@]2(C=C[C@@H](O)[C@]3(CC[C@@](C)([C@H]4CC[C@](O)(CC)[C@H](C)O4)O3)O2)[C@H](C)C[C@@H]1C` ; activity at […] = 6.38%

----------
Recorded measurements of log10 of IC50, one per entry
system: Toxoplasma gondii tachyzoites of the RH strain; assay: microbe, parasite or virus in culture; conditions: NHDF, 168 h, read-out: IC50 (μM) in Tachyzoites, RH strain in NHDF cells, plaque assay, 7 days of treatment
Hello, just confirming the data are log10 of IC50 with units of µM.

Data point: CCN1CCN(Cc2ccc(Nc3ncc(F)c(-c4cc(F)c5nc(C)n(C(C)C)c5c4)n3)nc2)CC1 [Abemaciclib] ; log10 of IC50 = -1.05

Data point: Cc1cccc(/C=N/Nc2cc(N3CCOCC3)nc(OCCc3ccccn3)n2)c1 [Apilimod] ; log10 of IC50 = -0.66

Data point: CNC(=O)c1cc(Oc2ccc(NC(=O)Nc3ccc(Cl)c(C(F)(F)F)c3)c(F)c2)ccn1 [Regorafenib] ; log10 of IC50 = -0.60

Data point: CC[C@H]1CN2CCc3cc(OC)c(OC)cc3[C@@H]2C[C@@H]1C[C@H]1NCCc2cc(OC)c(OC)cc21 [Emetine] ; log10 of IC50 = -1.30

Data point: COc1ccc2cc1Oc1ccc(cc1)C[C@H]1c3cc(c(OC)cc3CCN1C)Oc1c(OC)c(OC)cc3c1[C@H](C2)N(C)CC3 [Tetrandrine] ; log10 of IC50 = -0.46

Data point: COc1c(C)c2c(c(O)c1C/C=C(\C)CCC(=O)O)C(=O)OC2 [Mycophenolic acid] ; log10 of IC50 = -1.15

Data point: CNC(=O)c1cc(Oc2ccc(NC(=O)Nc3ccc(Cl)c(C(F)(F)F)c3)cc2)ccn1 [Sorafenib] ; log10 of IC50 = -0.25

Data point: O=C(Nc1ccc([N+](=O)[O-])cc1Cl)c1cc(Cl)ccc1O [Niclosamide] ; log10 of IC50 = -0.44

----------
assay: in vitro; conditions: human
ASSAY ENDPOINT: selectivity ratio at 7 days
Keep the answer to the number alone.

Guide cases for selectivity ratio at 7 days, answers given:
COMPOUND	RECORDED RESULT
Nc1nc(Nc2ccc3c(c2)CC[C@@H](N2CCCC2)CC3)nn1-c1cc2c(nn1)-c1ccccc1CCC2	6
CC(C)C[C@H](NC(=O)[C@H](Cc1ccccc1)NC(=O)c1cnccn1)B(O)O	24
CNC(=O)c1cc(Oc2ccc(NC(=O)Nc3ccc(Cl)c(C(F)(F)F)c3)c(F)c2)ccn1	12

Data point: O=C(Nc1ccc([N+](=O)[O-])cc1Cl)c1cc(Cl)ccc1O [Niclosamide] ; selectivity ratio at 7 days = 8

----------
test system: Toxoplasma gondii tachyzoites of the RH strain; test: microbe, parasite or virus in culture; details: NHDF, 168 h, read-out: IC50 (μM) in Tachyzoites, RH strain in NHDF cells, plaque assay, 7 days of treatment
Recorded measurements of IC50, one per entry
Note: unit µM is implicit; provide only the numeric part.

COMPOUND	RECORDED RESULT
COC(=O)C1=C(C)NC(C)=C(C(=O)OCCN2CCN(C(c3ccccc3)c3ccccc3)CC2)C1c1cccc([N+](=O)[O-])c1 (stereo not drawn)	0.74
Nc1nc(Nc2ccc3c(c2)CC[C@@H](N2CCCC2)CC3)nn1-c1cc2c(nn1)-c1ccccc1CCC2	0.15
CC(C)(C)Cn1c(N)nc2ccc(-c3[nH]c(C(C)(C)C)nc3-c3ccc(F)cc3)nc21	0.04
C[C@H]1O[C@@H](O[C@H]2[C@@H](O)C[C@H](O[C@H]3[C@@H](O)C[C@H](O[C@H]4CC[C@@]5(C)[C@H](CC[C@@H]6[C@@H]5C[C@@H](O)[C@]5(C)[C@@H](C7=CC(=O)OC7)CC[C@]65O)C4)O[C@@H]3C)O[C@@H]2C)C[C@H](O)[C@@H]1O	0.03

Pending compound:
Data point: `Cc1ccc(C(=O)Nc2ccc(CN3CCN(C)CC3)c(C(F)(F)F)c2)cc1C#Cc1cnc2cccnn12` ; IC50 = 0.33

----------
assay: in vitro; details: human
Recorded measurements of selectivity ratio at 7 days, one per entry
Keep the answer to the number alone.

Guide cases for selectivity ratio at 7 days, answers given:
CHEMICAL STRING	selectivity ratio at 7 days
COc1c(C)c2c(c(O)c1C/C=C(\C)CCC(=O)O)C(=O)OC2	340
COc1ccc2cc1Oc1ccc(cc1)C[C@H]1c3cc(c(OC)cc3CCN1C)Oc1c(OC)c(OC)cc3c1[C@H](C2)N(C)CC3	14
COc1cc2c3cc1Oc1c(OC)c(OC)cc4c1[C@@H](Cc1ccc(O)c(c1)Oc1ccc(cc1)C[C@@H]3N(C)CC2)N(C)CC4	15
Cc1cccc(/C=N/Nc2cc(N3CCOCC3)nc(OCCc3ccccn3)n2)c1	10

Pending molecule:
Data point: `CC[C@@H](C(=O)[C@@H](C)[C@@H](O)[C@H](C)[C@@H]1O[C@@H]([C@@H](CC)C(=O)O)CC[C@@H]1C)[C@H]1O[C@]2(C=C[C@@H](O)[C@]3(CC[C@@](C)([C@H]4CC[C@](O)(CC)[C@H](C)O4)O3)O2)[C@H](C)C[C@@H]1C` ; selectivity ratio at 7 days = 16

----------
assay: in vitro; conditions: human
ASSAY ENDPOINT: CC50 at 7 days (nM)
Note: unit nM is implicit; provide only the numeric part.

Guide cases for CC50 at 7 days, answers given:
CHEMICAL STRING	CC50 at 7 days, nM
C[C@H]1O[C@@H](O[C@H]2[C@@H](O)C[C@H](O[C@H]3[C@@H](O)C[C@H](O[C@H]4CC[C@@]5(C)[C@H](CC[C@@H]6[C@@H]5C[C@@H](O)[C@]5(C)[C@@H](C7=CC(=O)OC7)CC[C@]65O)C4)O[C@@H]3C)O[C@@H]2C)C[C@H](O)[C@@H]1O	340
Nc1nc(Nc2ccc3c(c2)CC[C@@H](N2CCCC2)CC3)nn1-c1cc2c(nn1)-c1ccccc1CCC2	970
CC[C@H]1CN2CCc3cc(OC)c(OC)cc3[C@@H]2C[C@@H]1C[C@H]1NCCc2cc(OC)c(OC)cc21	1020
COc1cc2c3cc1Oc1c(OC)c(OC)cc4c1[C@@H](Cc1ccc(O)c(c1)Oc1ccc(cc1)C[C@@H]3N(C)CC2)N(C)CC4	4610

Data point: `CNC(=O)c1cc(Oc2ccc(NC(=O)Nc3ccc(Cl)c(C(F)(F)F)c3)c(F)c2)ccn1` ; CC50 at 7 days = 3030

Provenance of the data: paper PMC11676817
